Here, each record is paired with measured EC50 Human APJ Receptor data.
# subject.of.test: T1, human APJ receptor (human, UniProt P35414 1-380)
# T1 sequence (looked up): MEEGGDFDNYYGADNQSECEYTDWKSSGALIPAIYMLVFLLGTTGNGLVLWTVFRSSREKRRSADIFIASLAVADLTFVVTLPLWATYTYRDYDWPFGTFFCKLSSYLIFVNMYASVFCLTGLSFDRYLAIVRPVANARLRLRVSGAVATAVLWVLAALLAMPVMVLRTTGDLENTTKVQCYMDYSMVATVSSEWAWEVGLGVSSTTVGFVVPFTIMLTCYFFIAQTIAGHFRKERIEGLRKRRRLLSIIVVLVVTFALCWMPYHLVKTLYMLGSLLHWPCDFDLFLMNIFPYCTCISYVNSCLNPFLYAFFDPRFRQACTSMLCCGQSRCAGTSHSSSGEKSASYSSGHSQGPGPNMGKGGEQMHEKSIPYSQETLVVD
# test.description: cell-based or functional assay
Starred links: 1 amine or outer side, 2 acyl side, 3 side chain; linkers in the order of their positions; H or OH if unused. Non-standard residues stand in square brackets, D forms with d. *: point of attachment. AC4Abu = α-carboxy-4-aminobutyric acid, O=C(C(CCN[*:1])C(=O)[*:3])[*:2]; Oic = O=C(O)[C@@H]1C[C@@H]2CCCC[C@@H]2N1; Phe(4-Cl) = N[C@@H](Cc1ccc(Cl)cc1)C(=O)O; γGlu = O=C(O)[C@H](CCC(=O)[*:2])N[*:1]; NMeR = CN[C@@H](CCCNC(=N)N)C(=O)O; Palmitoyl = CCCCCCCCCCCCCCCC(=O)*; Cha = N[C@@H](CC1CCCCC1)C(=O)O; β3hP = O=C(O)C[C@@H]1CCCN1; Nle = CCCC[C@H](N)C(=O)O; AEEA = NCCOCCOCC(=O)O; Aib = CC(C)(N)C(=O)O
Form entry: value (nM) — number only.

binder	assay.readout	unit.info	measured.result
Palmitoyl-[AC4Abu][AEEA][AEEA][dQ]RP[NMeR][Cha]SHKG[Oic][Aib][Phe(4-Cl)]-OH (SMILES CCCCCCCCCCCCCCCC(=O)NCCC(C(=O)O)C(=O)NCCOCCOCC(=O)NCCOCCOCC(=O)N[C@H](CCC(N)=O)C(=O)N[C@@H](CCCNC(=N)N)C(=O)N1CCC[C@H]1C(=O)N(C)[C@@H](CCCNC(=N)N)C(=O)N[C@@H](CC1CCCCC1)C(=O)N[C@@H](CO)C(=O)N[C@@H](Cc1c[nH]cn1)C(=O)N[C@@H](CCCCN)C(=O)NCC(=O)N1[C@H](C(=O)NC(C)(C)C(=O)N[C@@H](Cc2ccc(Cl)cc2)C(=O)O)C[C@@H]2CCCC[C@@H]21) [SEQ ID NO: 580]	EC50 Human APJ Receptor	nM	0.462

Ask | Form field: reported EC50 Human APJ Receptor of Palmitoyl-[γGlu][AEEA][AEEA][dQ]RP[NMeR][Cha]SHKG[β3hP][Nle][Phe(4-Cl)]-OH (SMILES CCCCCCCCCCCCCCCC(=O)N[C@@H](CCC(=O)NCCOCCOCC(=O)NCCOCCOCC(=O)N[C@H](CCC(N)=O)C(=O)N[C@@H](CCCNC(=N)N)C(=O)N1CCC[C@H]1C(=O)N(C)[C@@H](CCCNC(=N)N)C(=O)N[C@@H](CC1CCCCC1)C(=O)N[C@@H](CO)C(=O)N[C@@H](Cc1c[nH]cn1)C(=O)N[C@@H](CCCCN)C(=O)NCC(=O)N1CCC[C@H]1CC(=O)N[C@@H](CCCC)C(=O)N[C@@H](Cc1ccc(Cl)cc1)C(=O)O)C(=O)O) [SEQ ID NO: 613]
Reply | 1.66

These data points were gathered from patent US10941182.
